Test: recombinant barcode read abundance after kanamycin selection (control-corrected) (log10(CPM+1)); higher = more efficient recombination; sequences stand for … in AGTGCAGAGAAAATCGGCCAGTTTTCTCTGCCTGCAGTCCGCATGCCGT…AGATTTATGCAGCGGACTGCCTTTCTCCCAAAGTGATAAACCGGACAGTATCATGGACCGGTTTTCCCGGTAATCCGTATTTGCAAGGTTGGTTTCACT; site = the 11-nt target;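 further: IS621 recombinase and bridge RNA in Escherichia coli cells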
assay.metric: recombinant barcode read abundance (log10)
Please give the numeric answer without any surrounding text.

Would you please look over these solved cases?
residue.string	test.value
TGAAATGCTTGGGTTCTAACCTGTTGCCT (site TGACATGCTAG)	0.0158
CAGAGATCTTGGGTTCTAACCTGTTGCTT (site CAAAGATCTAA)	0.328
ACTTAGACTTGGGTTCTAACCTGTTGCCA (site ACTTAGACTTG)	0.363
GGCATTCCTTGGGTTCTAACCTGTTGCCT (site GGCACTCCTAG)	0.0331
CGATTAACTTGGGTTCTAACCTGTTGCCT (site CGATTAGCTAG)	0.107
CAACCACCTTGGGTTCTAACCTGTTGCTT (site CAAACACCTAA)	0.142

stdin: # lookup: recombinant barcode read abundance (log10) of GCCATTCCTTGGGTTCTAACCTGTTGCAT (site AGAGCCACTTA)
stdout: 0.0467

stdin: Cool, now TCTGAGTCTTGGGTTCTAACCTGTTGCTG (site TCTGAGTCTCA)
stdout: 0.858

stdin: Cool, now CTCCAGCCTTGGGTTCTAACCTGTTGCGG (site CTCCAACCTCC)
stdout: 0.411

stdin: Cool, now GTGCTCGCTTGGGTTCTAACCTGTTGCCT (site GTGCTCGCTAG)
stdout: 1.87
